Cited source: patent US20260015341A1

- assay details: Pharmacokinetics in beagle dogs
- Format: in vivo
- applied conditions: male, plasma, po; beagle dog, ig (intragastric), 10 mg/kg
measurement name: half-life (h)

INSERT INTO assay_data (chem_smiles, measurement_name, experimental_value) VALUES
  ('Cc1cc([C@@H](C)Nc2ccc(Cl)nc2C(=O)O)c2nc(-c3ccc(F)cc3)n(C)c(=O)c2c1', 'half-life', 4.19);

(1) C[C@@H](Nc1ccc(Cl)nc1C(=O)O)c1cc(F)cc2c(=O)n(C)c(-c3ccc(F)cn3)nc12
(2) Cc1cc([C@@H](C)Nc2ccc(Cl)nc2C(=O)O)c2nc(-c3ccc(F)cn3)n(C)c(=O)c2c1
Data request: Form field 'greater half-life' accepts 1 or 2 ; which applies? Your answer should be the label of the entry you select.
Data returned: 1
